- assayed_system: SARS-CoV-2 RBD-hFc (SARS-CoV-2, UniProt P0DTC2 319-541)
- method_summary: cell-based or functional assay
property_label: IC50, 세포내 유입(internalization) 억제, HEK293E/ACE2-GFP (nM)
Give bare numbers, in nM.

// known answers, use as guide
- binder: "SA4114 (antibody, V domains shown) VH: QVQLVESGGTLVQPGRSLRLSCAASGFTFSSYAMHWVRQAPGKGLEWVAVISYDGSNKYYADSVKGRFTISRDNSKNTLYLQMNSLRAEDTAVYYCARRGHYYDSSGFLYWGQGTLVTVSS VL: DIQMTQSPSSLSASVGDRVTITCRAGQSIDNYLNWYQQKPGKAPKLLIYAASTLHSGVPSRFSGSGSGTDFTLTISSLQPDDFATYYCQQSYSIPRTFGQGTKLEIK"
  reading: 24.1
- binder: "SA4118 (antibody, V domains shown) VH: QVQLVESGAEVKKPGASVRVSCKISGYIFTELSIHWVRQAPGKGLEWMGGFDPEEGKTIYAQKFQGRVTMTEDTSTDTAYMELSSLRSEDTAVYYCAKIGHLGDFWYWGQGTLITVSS VL: QSALTQPASVSGSPGQSITISCTGTTSDIGSYDYVSWYQQHPGKAPKLIIYGVTRRPSGVSNRFSGSKSGNTASLTISGLQAEDEANYYCSSCTRSSTYVFGTGTKVTVL"
  reading: 31.4
- binder: "SA4079 (antibody, V domains shown) VH: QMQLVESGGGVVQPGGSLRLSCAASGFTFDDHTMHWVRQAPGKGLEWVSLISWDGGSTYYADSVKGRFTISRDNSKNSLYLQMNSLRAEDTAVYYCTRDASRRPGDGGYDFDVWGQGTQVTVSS VL: QAVVTQEPSLTVSPGGTATLTCGSSTGTVTRGHWPYWFQQKPGQAPRTLIYDTDTKHSWTPARFSGSLLGGKAALTLSGAQPEDEADYYCLLSYSDSRVFGTGTKVTVL"
  reading: 40
- binder: "SA4086 (antibody, V domains shown) VH: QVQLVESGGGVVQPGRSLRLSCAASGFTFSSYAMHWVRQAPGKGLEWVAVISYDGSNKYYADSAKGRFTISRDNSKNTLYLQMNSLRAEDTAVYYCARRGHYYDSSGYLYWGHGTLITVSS VL: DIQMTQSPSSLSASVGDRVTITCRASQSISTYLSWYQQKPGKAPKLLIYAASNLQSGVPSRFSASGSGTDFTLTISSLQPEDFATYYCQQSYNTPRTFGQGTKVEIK"
  reading: 27.2

Continue with the next binder.
Give the measured IC50, 세포내 유입(internalization) 억제, HEK293E/ACE2-GFP of SA3838 (antibody, V domains shown) VH: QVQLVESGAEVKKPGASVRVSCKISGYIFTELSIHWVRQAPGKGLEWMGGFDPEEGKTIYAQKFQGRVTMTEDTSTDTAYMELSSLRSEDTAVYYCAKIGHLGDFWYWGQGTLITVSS VL: QSALTQPASVSGSPGQSITISCTGTTSDIGSYDYVSWYQQHPGKAPKLIIYGVTRRPSGVSNRFSGSKSGNTASLTISRLLTEDEAEYYCATYTSSATYVFGTGTKVTVL .
42.8
